- METHOD SUMMARY: ovarian cancer cell viability with rucaparib, profiling panel, oncology-focused library, rucaparib conditional (AID 1508598)
- ASSAY SETUP: patient-derived ovarian cancer cells, CellTiter-Glo viability, 144 h; at 5 µM; OCI-C5x cells; without rucaparib
Active and inactive are the calls of the source.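 Rule for the calls: active = normalized viability below 100% at a tested concentration; inactive = the rest.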
Would you mind answering with one of these outcomes? active, inactive

smi=CCCC(CCC)C(=O)O answer_label=inactive

Task: In this assay, the call recorded for CN(C)c1nc(N(C)C)nc(N(C)C)n1 was what?
Output: active

Task: In this assay, the call recorded for Cc1cc(O)c2c(c1)C(=O)c1cccc(O)c1C2=O was what?
Output: inactive

Task: In this assay, the call recorded for CNC(=O)c1ccccc1Sc1ccc2c(/C=C/c3ccccn3)n[nH]c2c1 was what?
Output: active

Task: In this assay, the call recorded for COc1c(C)c2c(c(O)c1C/C=C(\C)CCC(=O)OCCN1CCOCC1)C(=O)OC2 was what?
Output: active

Task: In this assay, the call recorded for CC(C)C[C@H](NC(=O)[C@H](Cc1ccccc1)NC(=O)c1cnccn1)B(O)O was what?
Output: active

====

- METHOD SUMMARY: ovarian cancer cell viability with rucaparib, profiling panel, oncology-focused library, rucaparib conditional (AID 1508598)
- ASSAY SETUP: patient-derived ovarian cancer cells, CellTiter-Glo viability, 144 h; at 0.0781 µM; OCI-P5x cells; without rucaparib; stronger effect = lower value
REPORTED PROPERTY: viability (%)
# output: bare number, implied unit %

Worked examples follow.
smi=Cc1nc(Nc2ncc(C(=O)Nc3c(C)cccc3Cl)s2)cc(N2CCN(CCO)CC2)n1 reported_property=viability result_value=31.8
smi=CN(C)c1nc(N(C)C)nc(N(C)C)n1 reported_property=viability result_value=106
smi=CC(C)C[C@H](NC(=O)[C@H](Cc1ccccc1)NC(=O)c1cnccn1)B(O)O reported_property=viability result_value=1.08

Please turn your attention to the following entry.
Task: Which viability reading was recorded for the molecule CNC(=O)c1ccccc1Sc1ccc2c(/C=C/c3ccccn3)n[nH]c2c1 ?
Output: 96.6

====

Form field: luciferase signal (one value per entry).
- TESTED ON: Mitogen-activated protein kinase 7 (Homo sapiens) (UniProt Q13164)
- Sequence (Q13164 whole entry, looked up, the tested form may be a part): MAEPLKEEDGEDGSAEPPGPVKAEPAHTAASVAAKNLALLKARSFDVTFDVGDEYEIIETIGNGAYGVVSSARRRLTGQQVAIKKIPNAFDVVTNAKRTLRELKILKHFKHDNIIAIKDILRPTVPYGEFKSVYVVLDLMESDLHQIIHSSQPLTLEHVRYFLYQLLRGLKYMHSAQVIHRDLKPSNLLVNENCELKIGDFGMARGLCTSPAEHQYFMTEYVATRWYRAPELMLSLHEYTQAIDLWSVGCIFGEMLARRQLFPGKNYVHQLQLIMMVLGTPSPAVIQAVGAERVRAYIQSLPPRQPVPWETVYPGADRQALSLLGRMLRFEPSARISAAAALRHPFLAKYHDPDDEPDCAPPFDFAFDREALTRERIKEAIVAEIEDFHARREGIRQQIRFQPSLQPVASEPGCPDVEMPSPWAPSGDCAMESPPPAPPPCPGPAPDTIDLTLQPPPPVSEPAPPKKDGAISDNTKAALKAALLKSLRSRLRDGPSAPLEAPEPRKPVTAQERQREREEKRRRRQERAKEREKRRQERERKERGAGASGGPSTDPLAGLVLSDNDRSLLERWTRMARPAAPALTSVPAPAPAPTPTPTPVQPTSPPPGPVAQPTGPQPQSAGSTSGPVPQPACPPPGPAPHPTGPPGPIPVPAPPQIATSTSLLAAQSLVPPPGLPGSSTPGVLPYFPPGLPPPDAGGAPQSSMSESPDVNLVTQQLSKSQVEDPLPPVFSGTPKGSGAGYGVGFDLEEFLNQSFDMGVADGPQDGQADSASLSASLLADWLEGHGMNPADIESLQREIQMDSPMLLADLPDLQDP
- METHOD SUMMARY: ERK5 transactivation activators in reporter cells, primary screen, cell-based, HTS (AID 1508626);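 note: luciferase driven by Gal4-ERK5 fusion binding five Gal4 sites before minimal TATA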
- ASSAY SETUP: HeLa Gal4-ERK5 transactivation, 18 h, at 5 µM, stronger effect = higher value
The source made the active and inactive calls.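 How the source made its calls: active means luciferase signal above three times the same-plate solvent-only control wells; inactive means the rest.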

Worked examples follow.
compound="CC(C)CCCC(C)N (stereo unspecified)" result_value="56 AU (inactive)"
compound="COc1c2ccoc2nc2c(OC)c(OCC(O)C(C)(C)O)ccc12 (stereo unspecified)" result_value="28 AU (inactive)"
compound="NC(=O)CCCCC1CCSS1 (stereo unspecified)" result_value="44 AU (inactive)"
compound="CC(CCc1ccccc1)NCC(O)c1ccc(O)c(C(N)=O)c1 (stereo unspecified)" result_value="116 AU (inactive)"
compound=CCCCC(=O)N(Cc1ccc(-c2ccccc2-c2nn[nH]n2)cc1)[C@H](C(=O)O)C(C)C result_value="56 AU (inactive)"

Please turn your attention to the following entry.
Task: Find luciferase signal (Mitogen-activated protein kinase 7 (Homo sapiens) (UniProt Q13164)) for the entry Cc1cc(C(C)(C)CC(C)(C)C)ccc1OCCOCC[N+](C)(C)Cc1ccccc1
Output: 116 AU (inactive)

====

- METHOD SUMMARY: sensitizers of A549 cells to miR-34 induction, primary screen, imaging, A549 dox-inducible miR-34, nuclei and caspase counts (AID 1347080)
- ASSAY SETUP: A549 miR-34 inducible, Hoechst nuclei count, 48 h; measured here: relative caspase fold change +Dox/-Dox
Would you mind labelling by fold change? At or over 0.9 is Fulfilled, under is Not fulfilled.

Look over these answered cases.
molecule="CC(O)C(=O)O (stereo unspecified)" answer_label="Not fulfilled"
molecule=COc1cc(Nc2c(C#N)cnc3cc(OCCCN4CCN(C)CC4)c(OC)cc23)c(Cl)cc1Cl answer_label="Not fulfilled"
molecule=N=c1ccn2c(n1)O[C@H]1[C@H](O)[C@@H](CO)O[C@H]12 answer_label=Fulfilled

Task: hey, is fold change for this one >= 0.9? O=C(O)c1c2ccccc2cc2ccccc12
Output: Not fulfilled

Task: hey, is fold change for this one >= 0.9? CCC1NC(=O)c2cc(S(N)(=O)=O)c(Cl)cc2N1 (stereo unspecified)
Output: Not fulfilled

====

- METHOD SUMMARY: suppressors of polyQ aggregation in yeast, 75Q-TubU reporter (AID 1593)
- ASSAY SETUP: Yeast 75Q polyglutamine aggregation reporter
REPORTED PROPERTY: score

Task: Which score reading was recorded for the compound CN1C(=O)CC[C@H]1c1cccnc1 ?
Output: 1.01

Task: Which score reading was recorded for the compound NCCSSCCN ?
Output: 1.31

Task: Which score reading was recorded for the compound CC(=C(CCOP(=O)(O)O)SC(=O)c1ccccc1)N(C=O)Cc1cnc(C)nc1N ?
Output: 1.37

====

Form field: inhibition (one value per entry).
- System: Hepatitis C virus NS3 helicase
- METHOD SUMMARY: HCV NS3 helicase inhibitors, primary screen, biochemical, fluorescence polarization, NIH Clinical Collection (AID 743270)
- ASSAY SETUP: NS3 helicase binding to Cy5-dT15 DNA, stronger effect = higher value, concentration not given here
# output: bare number, implied unit %

Worked examples follow.
compound=CN/C(=C\[N+](=O)[O-])NCCSCc1ccc(CN(C)C)o1 tested_on="Hepatitis C virus NS3 helicase" reported_property=inhibition result_value=0.45
compound=O=C(O)CCc1nc(-c2ccccc2)c(-c2ccccc2)o1 tested_on="Hepatitis C virus NS3 helicase" reported_property=inhibition result_value=1.19
compound=CC1(C)S[C@@H]2[C@H](NC(=O)[C@H](N)c3ccc(O)cc3)C(=O)N2[C@H]1C(=O)O tested_on="Hepatitis C virus NS3 helicase" reported_property=inhibition result_value=-4.09

Task: Which inhibition reading was recorded for the compound CC(=O)OCC(=O)[C@@]1(O)CC[C@H]2[C@@H]3C[C@H](C)C4=CC(=O)C=C[C@]4(C)[C@H]3[C@@H](O)C[C@@]21C ?
Output: -2.27

Task: Which inhibition reading was recorded for the compound COc1cc(Cc2cnc(N)nc2N)cc(OC)c1OC ?
Output: -3.18

Task: Which inhibition reading was recorded for the compound COc1ccc(-c2oc3c(CC=C(C)C)c(O[C@@H]4O[C@H](CO)[C@@H](O)[C@H](O)[C@H]4O)cc(O)c3c(=O)c2O[C@@H]2O[C@@H](C)[C@H](O)[C@@H](O)[C@H]2O)cc1 ?
Output: -9.9

Task: Which inhibition reading was recorded for the compound CNCCCN1c2ccccc2CCc2ccccc21 ?
Output: -2.27

Task: Which inhibition reading was recorded for the compound CC(CCc1ccccc1)NCC(O)c1ccc(O)c(C(N)=O)c1 (centres undefined) ?
Output: -2.27

Task: Which inhibition reading was recorded for the compound C[C@]12CC[C@@H]3c4ccc(O)cc4CC[C@H]3[C@@H]1CC[C@@H]2O ?
Output: 2.77

====

- METHOD SUMMARY: glucagon-like peptide 1 release enhancers, primary assay, NCI-H716 cell line, NPC library (AID 1117341)
- ASSAY SETUP: NCI-H716 cells, at 10 µM, stronger effect = higher value
Form field: GLP1 secretion stimulation (one value per entry).
# output: bare number, implied unit %

Worked examples follow.
compound=CC(=O)Nc1ncc([N+](=O)[O-])s1 result_value=-1.7
compound=O=C(O)CCc1nc2ccccc2[nH]1 result_value=3.5
compound=C[C@@]12C(=O)OC(=O)[C@]1(C)C1CCC2O1 result_value=20.1
compound="CC(=O)OCC(=O)[C@@]1(O)CCC2C3CCC4=CC(=O)CC[C@]4(C)C3[C@@H](O)C[C@@]21C (stereo partly specified)" result_value=-3.9
compound=C/C(=C(\CCOP(=O)(O)O)SC(=O)c1ccccc1)N(C=O)Cc1cnc(C)nc1N result_value=-2.7

Please turn your attention to the following entry.
Task: Which GLP1 secretion stimulation reading was recorded for the compound O=C(O)c1cccc(-c2noc(-c3ccccc3F)n2)c1 ?
Output: 2.2

====

- METHOD SUMMARY: suppressors of polyglutamine aggregation in yeast, 75Q-TubH (AID 1616)
- ASSAY SETUP: S. cerevisiae 75Q-TubH polyglutamine aggregation suppression; stronger effect = higher value
REPORTED PROPERTY: aggregation suppression score

Task: Which aggregation suppression score reading was recorded for the compound CNCCC=C1c2ccccc2CCc2ccccc21 ?
Output: 1.32

====

- METHOD SUMMARY: differential killing of epithelial or mesenchymal cells, primary screen, imaging, PC-3E GFP, TEM4-18 mCherry, co-culture (AID 1345086);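 note: normalised mesenchymal count divided by normalised epithelial count so high means epithelial killing; cells exposed to compound for 72 h before imaging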
- ASSAY SETUP: imaging cell counts, at 1 µM, actives lie on both sides, counts scaled to control wells, 1 = unselective
REPORTED PROPERTY: red/green cell ratio (normalised)
Answer with a bare number; do not write a unit.

molecule="C=C1C2CC[C@@]3(C)[C@H](c4ccoc4)OC(=O)C[C@]13O[C@H]1CC(O)C(C)(C)C(CC(=O)OC)[C@@]21C (some centres not stated)" result_value=1.02

Task: Which red/green cell ratio (normalised) reading was recorded for the molecule CC1=CCc2c(cc3oc(C)cc(=O)c3c2O)OC1 ?
Output: 1.1
